binders and their reported OD450 nm
- target or test system: cynomolgus IL-13 (purchased from sino biological) (cynomolgus) (UniProt Q0PW92)
- Sequence (Q0PW92 entry or part of it): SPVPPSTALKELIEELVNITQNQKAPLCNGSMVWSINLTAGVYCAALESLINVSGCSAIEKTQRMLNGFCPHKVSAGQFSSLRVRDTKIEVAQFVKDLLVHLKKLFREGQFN
- assay text: ELISA, cynomolgus IL-13; antibody at 0.53 nM

- binder: "c35E2C3 (mouse-human chimeric IL-13 antibody) (antibody, V domains shown) VH: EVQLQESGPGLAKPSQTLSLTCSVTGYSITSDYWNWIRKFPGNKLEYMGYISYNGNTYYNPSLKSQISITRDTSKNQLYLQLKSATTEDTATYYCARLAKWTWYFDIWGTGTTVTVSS VL: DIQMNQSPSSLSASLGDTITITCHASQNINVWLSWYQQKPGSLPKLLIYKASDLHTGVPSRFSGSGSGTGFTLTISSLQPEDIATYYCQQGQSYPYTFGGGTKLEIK"
  OD450 nm: 0.59
- binder: "28A2E11 (lead antibody, mouse hybridoma) (antibody, V domains shown, Mouse monoclonal antibody purified from hybridoma supernatant on Protein G) VH: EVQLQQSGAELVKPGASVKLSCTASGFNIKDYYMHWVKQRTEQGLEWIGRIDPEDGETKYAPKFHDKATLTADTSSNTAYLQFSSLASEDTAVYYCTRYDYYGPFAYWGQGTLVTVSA VL: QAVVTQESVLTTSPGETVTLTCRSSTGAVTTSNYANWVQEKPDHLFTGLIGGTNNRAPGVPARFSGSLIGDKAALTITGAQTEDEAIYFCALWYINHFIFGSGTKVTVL"
  OD450 nm: 0.83
- binder: "29D9H8 (lead antibody, mouse hybridoma) (antibody, V domains shown, Mouse monoclonal antibody purified from hybridoma supernatant on Protein G) VH: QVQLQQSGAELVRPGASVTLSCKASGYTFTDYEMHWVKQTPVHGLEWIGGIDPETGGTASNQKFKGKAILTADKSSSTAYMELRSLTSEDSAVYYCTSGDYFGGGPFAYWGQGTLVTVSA VL: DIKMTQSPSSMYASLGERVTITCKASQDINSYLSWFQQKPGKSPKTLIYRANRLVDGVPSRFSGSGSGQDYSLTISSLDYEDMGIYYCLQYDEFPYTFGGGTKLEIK"
  OD450 nm: 2.05
- binder: "c29D9H8 (mouse-human chimeric IL-13 antibody) (antibody, V domains shown) VH: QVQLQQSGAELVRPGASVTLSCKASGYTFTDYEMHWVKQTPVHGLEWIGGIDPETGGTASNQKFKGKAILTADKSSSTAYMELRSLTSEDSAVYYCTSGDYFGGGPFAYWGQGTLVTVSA VL: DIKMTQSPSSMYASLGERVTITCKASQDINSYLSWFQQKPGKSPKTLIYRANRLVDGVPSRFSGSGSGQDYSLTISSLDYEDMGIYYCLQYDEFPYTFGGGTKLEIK"
  OD450 nm: 2.68
- binder: "35E2C3 (lead antibody, mouse hybridoma) (antibody, V domains shown, Mouse monoclonal antibody purified from hybridoma supernatant on Protein G) VH: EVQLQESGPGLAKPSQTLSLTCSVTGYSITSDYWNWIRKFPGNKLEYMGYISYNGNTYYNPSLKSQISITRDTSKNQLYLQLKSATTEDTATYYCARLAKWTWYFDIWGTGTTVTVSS VL: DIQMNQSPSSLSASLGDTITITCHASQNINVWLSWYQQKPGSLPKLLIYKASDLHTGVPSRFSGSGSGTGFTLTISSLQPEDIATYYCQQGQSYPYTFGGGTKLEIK"
  OD450 nm: 0.21
- binder: "c28A2E11 (mouse-human chimeric IL-13 antibody) (antibody, V domains shown) VH: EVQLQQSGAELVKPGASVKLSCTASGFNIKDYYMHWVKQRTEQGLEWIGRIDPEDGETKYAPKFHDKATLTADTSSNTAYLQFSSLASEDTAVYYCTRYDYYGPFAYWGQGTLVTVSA VL: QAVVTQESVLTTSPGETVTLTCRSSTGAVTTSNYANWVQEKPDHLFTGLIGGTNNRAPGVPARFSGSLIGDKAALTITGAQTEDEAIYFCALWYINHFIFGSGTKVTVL"
  OD450 nm: 0.54
